read-out: Monocyte Chemoattractant Protein-1 (MCP1), CCL2 (gene 6347); experiment: BSK_LPS_MCP1: BioMAP Diversity Plus: LPS Assay for Monocyte Chemoattractant Protein-1 (MCP1) Biomarker Activity (AID 2283081); conditions: primary human HUVEC with PBMC; actives raise or lower the signal
Activity calls are given as the source filed them. How the source made its calls: active means hit-call score of the fitted dose curve at least 0.9, where 1 is the maximum; inactive means score below 0.9.
Please reply with one of these outcomes: true (1) (active), false (0) (inactive)

For orientation, consider the following solved cases.
compound=CC(C)(O)c1coc(S(=O)(=O)NC(=O)Nc2c3c(cc4c2CCC4)CCC3)c1 cat="false (0)"
compound=CC1=CC(=O)CC(C)(C)C1 cat="false (0)"
compound=COC(=O)c1ccccc1O cat="false (0)"
compound=CCN(C(=O)c1cc(C)cc(OC[C@H](C)Nc2ccncc2)c1)C(C)C cat="false (0)"
compound=O=C(O)c1cc(N=Nc2ccc(S(=O)(=O)Nc3ccccn3)cc2)ccc1O cat="false (0)"
compound=CCCCCCCCCCCCc1ccccc1 cat="false (0)"

Task item: GET /call?item= CCCN(C1CCN(C(=O)C2CCNCC2)CC1)[C@@H]1CCc2ccc(OC)cc2C1 returns the recorded outcome of this test.
Reply: false (0)

Task item: How did this test come out for COc1cccc(-c2ccc(/C=C\CN3CCCCCC3)cc2Cl)c1 ?
Reply: false (0)

Task item: // return assay outcome for Cc1[nH]cnc1C[C@H]1CCc2c(C)c3ccccc3n2C1=O
Reply: true (1)

Task item: Tell me the recorded outcome of this test for Cn1c(=O)cc(Oc2ccc(F)cc2F)c2cnc(NCC(C)(C)O)nc21 .
Reply: true (1)

###

read-out: Potassium channel subfamily K member 1 (KCNK1), KCNK1 (gene 3775); experiment: LTEA_HepaRG_KCNK1: Life Technologies and Expression Analysis (LTEA) Assay for Potassium channel subfamily K member 1 (KCNK1) using HepaRG (AID 2283511); details: mRNA level, 48 h; actives raise or lower the signal
Calls of active or inactive are those of the source. The calls were made as follows: active = hit-call score of the fitted dose curve at least 0.9, where 1 is the maximum; inactive = score below 0.9.
observable: AC50

smiles_notation=CC(C)CCCCCCOC(=O)c1ccc(C(=O)OCCCCCCC(C)C)c(C(=O)OCCCCCCC(C)C)c1 reported_result=inactive
smiles_notation=O=C(O)CCN(C1(C(=O)NO)CCCC1)S(=O)(=O)c1ccc(Oc2ccc(F)cc2)cc1 reported_result=inactive
smiles_notation=Cn1cnc([N+](=O)[O-])c1Sc1ncnc2nc[nH]c12 reported_result="4.15 µM (active)"
smiles_notation=Nc1cccc(N)c1 reported_result=inactive
smiles_notation=CN(C)c1ccc(Cc2ccc(N(C)C)cc2)cc1 reported_result=inactive

Next compound, please.
CCCCCCCCCCCCCCCO yielded AC50 of inactive

###

biological target: Cellular tumor antigen p53 (Homo sapiens) (UniProt P04637); test: TOX21_p53_BLA_p5_ratio: Tox21 HCT-116 p53 Agonism Beta-lactamase Assay, Ratio, Phase 5 (AID 2283599)
Sequence (P04637 whole entry, looked up): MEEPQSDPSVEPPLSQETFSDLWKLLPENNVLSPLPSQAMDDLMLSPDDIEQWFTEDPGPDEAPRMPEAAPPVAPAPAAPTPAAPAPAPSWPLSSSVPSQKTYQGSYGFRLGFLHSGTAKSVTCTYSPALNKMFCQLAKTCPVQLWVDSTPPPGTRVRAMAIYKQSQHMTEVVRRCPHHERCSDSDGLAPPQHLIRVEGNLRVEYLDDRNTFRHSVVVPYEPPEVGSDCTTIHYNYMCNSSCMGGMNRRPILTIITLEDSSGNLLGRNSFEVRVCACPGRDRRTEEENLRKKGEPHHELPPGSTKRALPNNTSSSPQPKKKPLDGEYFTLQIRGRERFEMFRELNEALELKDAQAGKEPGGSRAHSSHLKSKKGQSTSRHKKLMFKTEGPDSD
Results filed as inconclusive are left out. Calls of active or inactive are those of the source. The calls were made as follows: active = hit-call score of the fitted dose curve at least 0.9, where 1 is the maximum; inconclusive = response in the unintended direction; inactive = score below 0.9.
Respond only with the outcome that fits, drawn from true for active, false for inactive

molecule="CC(C)=CCCC(C)CCO (stereo not given)" cat=false
molecule=COc1ccc(/C=C/S(=O)(=O)NC(=O)c2ccc(C)cc2Cl)cc1 cat=true

Task item: // outcome(item) with item = Cc1[nH]cnc1C[C@H]1CCc2c(C)c3ccccc3n2C1=O
Reply: false

Task item: How was COc1cccc(-c2ccc(/C=C\CN3CCCCCC3)cc2Cl)c1 classified in this test?
Reply: false

Task item: Identify the outcome logged in this assay for the molecule shown: CCC(C)(C)C(=O)O[C@H]1C[C@@H](C)C=C2C=C[C@H](C)[C@H](CC[C@@H]3C[C@@H](O)CC(=O)O3)[C@H]21
Reply: false

###

read-out: Intercellular Adhesion Molecule 1 (ICAM1), ICAM1 (gene 3383); assay: LTEA_HepaRG_ICAM1: Life Technologies and Expression Analysis (LTEA) Assay for Intercellular Adhesion Molecule 1 (ICAM1) using HepaRG (AID 2283507); conditions: mRNA level, 48 h; actives raise or lower the signal
Active and inactive are the calls of the source. How the source made its calls: active means hit-call score of the fitted dose curve at least 0.9, where 1 is the maximum; inactive means score below 0.9.
Return exactly one item of Yes (active), No (inactive)

Example entries and their recorded answers appear below.
compound="CNS(=O)(=O)c1cc(C(=O)N2CCC(CCN3C4CCC3CC(n3c(C)nc5ccccc53)C4)(c3cccc(F)c3)CC2)c(Cl)cc1F (stereo not drawn)" cat=Yes
compound=C1=CCCC=CCCC=CCC1 cat=No

Task item: Write down the call the test reported for this compound. Item: Cn1c(=O)c2c(ncn2C)n(C)c1=O
Reply: No

Task item: Per the assay record, what outcome was assigned to Cc1ccc(S(=O)(=O)O)cc1C ?
Reply: No

###

target: Bile acid receptor (Homo sapiens) (UniProt Q96RI1); test: OT_FXR_FXRSRC1_0480: Odyssey Thera (OT) 8-hour HEK293T Protein-Complementation Assay for Farnesoid X receptor/SRC-1 Co-activator (AID 2283383)
Sequence (Q96RI1 whole entry, looked up): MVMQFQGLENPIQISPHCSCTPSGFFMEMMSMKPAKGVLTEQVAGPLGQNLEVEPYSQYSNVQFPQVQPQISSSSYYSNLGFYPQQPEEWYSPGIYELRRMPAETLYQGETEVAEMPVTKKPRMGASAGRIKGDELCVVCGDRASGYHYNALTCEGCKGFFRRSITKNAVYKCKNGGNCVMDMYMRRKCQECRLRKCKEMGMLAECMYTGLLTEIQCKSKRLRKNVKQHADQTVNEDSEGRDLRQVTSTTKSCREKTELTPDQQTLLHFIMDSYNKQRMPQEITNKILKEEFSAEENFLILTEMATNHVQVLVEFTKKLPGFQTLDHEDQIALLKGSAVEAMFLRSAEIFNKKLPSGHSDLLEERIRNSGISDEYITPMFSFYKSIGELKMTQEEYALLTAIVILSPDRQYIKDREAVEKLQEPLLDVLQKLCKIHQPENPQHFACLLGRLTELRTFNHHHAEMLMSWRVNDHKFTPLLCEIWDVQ
Records with an inconclusive call do not appear. Activity calls are given as the source filed them. The calls were made as follows: active = hit-call score of the fitted dose curve at least 0.9, where 1 is the maximum; inconclusive = response in the unintended direction; inactive = score below 0.9.
Mark one answer only. Choices: yes (active), no (inactive)

Example results:
compound=CC(C)CCCCCCCOC(=O)CCCCC(=O)OCCCCCCCC(C)C cat=no
compound=CC1(C)C(=O)N(Br)C(=O)N1Br cat=no
compound=Nc1cccc(N)c1 cat=no
compound=CCCCCCCCCCCCCCCO cat=no
compound=COC(=O)c1c(Cl)c(Cl)c(C(=O)OC)c(Cl)c1Cl cat=yes
compound=Cn1c(=O)cc(Oc2ccc(F)cc2F)c2cnc(NCC(C)(C)O)nc21 cat=no
compound=C1=CCCC=CCCC=CCC1 cat=no
compound=CC(C)=CCC/C(C)=C\CO cat=no

Task item: Give the logged outcome of this assay for the following compound: CC(C)(O)c1coc(S(=O)(=O)NC(=O)Nc2c3c(cc4c2CCC4)CCC3)c1
Reply: no

Task item: Can you look up the reported call for C1N2CN3CN1CN(C2)C3 for me?
Reply: no

Task item: Per the assay record, what outcome was assigned to O=C1CCCCCN1 ?
Reply: no

###

assay: Tanguay_ZF_120hpf_PE_legacy: (Legacy) Oregon State University Tanguay Lab 120 Hour Post-fertilization zebrafish Assay for Pericardial Edema (AID 2283640)
Records with an inconclusive call do not appear. Calls of active or inactive are those of the source. How the source made its calls: active means hit-call score of the fitted dose curve at least 0.9, where 1 is the maximum; inconclusive means response in the unintended direction; inactive means score below 0.9.
# output must be one of Y = active, N = inactive

Please review the following examples before continuing.
compound=CN(C)c1ccc(N=NS(=O)(=O)O)cc1 cat=N
compound=O=C(O)c1cc(N=Nc2ccc(S(=O)(=O)Nc3ccccn3)cc2)ccc1O cat=N
compound="COc1ccc(-n2nc(C(F)F)cc2-c2ccc(S(C)=O)cc2)cc1 (centres undefined)" cat=Y

Now let's try a different one.
Task item: Short answer needed: outcome of this test for Cn1c(=O)c2c(ncn2C)n(C)c1=O ?
Reply: N

###

biological target: human Phosphodiesterase 4A1 (PDE4A1), PDE4A (gene 5141) (UniProt P27815); assay: NVS_ENZ_hPDE4A1: NovaScreen (NVS) Enzymatic Assay for human Phosphodiesterase 4A1 (PDE4A1) (AID 2283191)
Sequence (P27815 whole entry, looked up): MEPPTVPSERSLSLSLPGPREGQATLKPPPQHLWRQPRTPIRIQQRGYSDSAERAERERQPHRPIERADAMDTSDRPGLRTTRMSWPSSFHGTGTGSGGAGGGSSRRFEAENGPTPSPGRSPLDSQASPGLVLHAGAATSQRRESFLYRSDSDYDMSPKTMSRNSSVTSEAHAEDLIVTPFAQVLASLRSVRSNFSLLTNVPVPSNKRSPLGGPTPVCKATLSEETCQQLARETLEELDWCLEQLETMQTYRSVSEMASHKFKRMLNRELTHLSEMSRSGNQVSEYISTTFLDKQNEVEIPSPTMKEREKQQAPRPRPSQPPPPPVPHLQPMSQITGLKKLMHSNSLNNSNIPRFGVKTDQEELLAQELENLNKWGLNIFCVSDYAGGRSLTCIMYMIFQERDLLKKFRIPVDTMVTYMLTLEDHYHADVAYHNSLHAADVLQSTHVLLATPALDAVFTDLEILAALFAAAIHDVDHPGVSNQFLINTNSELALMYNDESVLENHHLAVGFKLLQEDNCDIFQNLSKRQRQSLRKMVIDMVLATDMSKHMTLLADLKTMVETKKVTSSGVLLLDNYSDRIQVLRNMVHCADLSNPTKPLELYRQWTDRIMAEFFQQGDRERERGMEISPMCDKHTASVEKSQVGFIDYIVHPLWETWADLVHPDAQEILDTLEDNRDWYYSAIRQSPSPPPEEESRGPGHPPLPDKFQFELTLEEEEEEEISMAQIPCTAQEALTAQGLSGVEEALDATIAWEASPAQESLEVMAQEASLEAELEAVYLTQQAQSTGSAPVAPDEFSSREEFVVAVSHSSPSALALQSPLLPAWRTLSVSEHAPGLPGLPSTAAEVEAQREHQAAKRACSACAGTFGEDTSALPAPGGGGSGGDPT
Inconclusive results are not listed. Calls of active or inactive are those of the source. The calls were made as follows: active = hit-call score of the fitted dose curve at least 0.9, where 1 is the maximum; inconclusive = response in the unintended direction; inactive = score below 0.9.
Please answer using one outcome listed in active, inactive

Look over these answered cases.
compound=Cc1ccc(N)cc1O cat=inactive
compound=COc1cccc(-c2ccc(/C=C\CN3CCCCCC3)cc2Cl)c1 cat=inactive
compound="COc1ccc(-n2nc(C(F)F)cc2-c2ccc(S(C)=O)cc2)cc1 (stereo unspecified)" cat=active
compound=CC[C@H]1CC[C@H](NCc2cc3c(cc2OC)[C@H]2C[C@H]2C(=O)N3C)[C@H](c2ccccc2)N1 cat=inactive
compound=Cn1c(=O)cc(Oc2ccc(F)cc2F)c2cnc(NCC(C)(C)O)nc21 cat=active

Switching to the query record.
Task item: Give the logged outcome of this assay for the following compound: O=C(O)c1cc(N=Nc2ccc(S(=O)(=O)Nc3ccccn3)cc2)ccc1O
Reply: inactive

###

target: Retinoic acid receptor RXR-alpha (Homo sapiens) (UniProt P19793); assay: OT_NURR1_NURR1RXRa_0480: Odyssey Thera (OT) 8-hour HEK293T Protein Complementation Assay for Nurr1/retinoid X receptor (RXR) (AID 2283385)
Sequence (P19793 whole entry, looked up): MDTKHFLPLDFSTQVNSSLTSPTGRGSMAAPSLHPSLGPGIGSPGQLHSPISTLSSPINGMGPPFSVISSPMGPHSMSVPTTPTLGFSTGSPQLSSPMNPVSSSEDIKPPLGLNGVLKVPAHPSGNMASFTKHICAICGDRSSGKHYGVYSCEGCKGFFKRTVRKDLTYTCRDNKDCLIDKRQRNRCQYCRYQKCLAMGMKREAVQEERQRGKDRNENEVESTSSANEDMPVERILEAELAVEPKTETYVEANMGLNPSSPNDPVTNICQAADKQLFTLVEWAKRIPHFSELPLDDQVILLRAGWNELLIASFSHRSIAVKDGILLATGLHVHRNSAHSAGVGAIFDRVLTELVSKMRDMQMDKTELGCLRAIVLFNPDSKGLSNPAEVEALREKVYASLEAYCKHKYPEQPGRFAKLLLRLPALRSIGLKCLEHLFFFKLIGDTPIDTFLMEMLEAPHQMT
Inconclusive results are not listed. Calls of active or inactive are those of the source. The calls were made as follows: active = hit-call score of the fitted dose curve at least 0.9, where 1 is the maximum; inconclusive = response in the unintended direction; inactive = score below 0.9.
Respond using exactly one of the listed classes: T for active, F for inactive

molecule=COCCOc1cc2cc(C(=O)NC3CCN(C(C)C)CC3)n(CC(=O)Nc3ccc(Cl)cn3)c2cn1 tested_target="Retinoic acid receptor RXR-alpha (Homo sapiens) (UniProt P19793)" cat=F

Task item: Please state the recorded outcome for this molecule: Cc1ccc(O)cc1
Reply: F

Task item: # outcome recorded in this test, key = Nc1cccc(N)c1
Reply: F

Task item: # fetch the recorded call for CNCc1ccc(NC(=O)c2c[nH]c3c2C(=O)CCC3)cc1 here
Reply: F

Task item: Would you mind telling me which call this test gave CC[C@H]1CC[C@H](NCc2cc3c(cc2OC)[C@H]2C[C@H]2C(=O)N3C)[C@H](c2ccccc2)N1 ?
Reply: F

Task item: Which outcome was assigned to CCOCCOCCOCCO in this test?
Reply: F

Task item: // param item: CCC(C)(C)C(=O)O[C@H]1C[C@@H](C)C=C2C=C[C@H](C)[C@H](CC[C@@H]3C[C@@H](O)CC(=O)O3)[C@H]21 ; yields the recorded call
Reply: F

Task item: Query: recorded result category for CC[C@H](C)C(=O)O[C@H]1C[C@@H](C)C=C2C=C[C@H](C)[C@H](CC[C@@H]3C[C@@H](O)CC(=O)O3)[C@H]21 in this test
Reply: F

Task item: What did the test return for CCOCCO ?
Reply: F
